// IC50 collected for UniProt P01116
Sequence (P01116 1-169 isoform P01116-2): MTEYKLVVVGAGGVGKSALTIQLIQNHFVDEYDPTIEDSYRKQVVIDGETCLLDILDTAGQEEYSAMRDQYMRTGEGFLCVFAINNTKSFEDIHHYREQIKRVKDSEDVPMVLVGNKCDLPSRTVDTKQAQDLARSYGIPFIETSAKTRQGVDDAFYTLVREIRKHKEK
Give your result as the value with the unit written after it.

Study these solved cases before continuing.
Cc1cccc2cccc(N3CCc4c(nc(OCC56CCCN5CCC6)nc4N4CC5C(=O)NC(=O)C5C4)C3)c12 (stereo not shown) ... 0.2 µM
CCc1cccc2cccc(N3CCc4c(nc(OCC56CCCN5CCC6)nc4N4CCC(O)C(CO)CC4)C3)c12 (stereo not shown) ... 0.041 µM
CCc1cccc2cccc(N3CCc4c(nc(OCC56CCCN5CCC6)nc4N4CCCC(S(=O)(=O)NC)C4)C3)c12 (stereo not shown) ... 0.651 µM
CCc1cccc2cccc(N3CCc4c(nc(OCC56CCCN5CCC6)nc4N4CCC(CO)C(O)C4)C3)c12 (stereo not shown) ... 0.158 µM
CCc1cccc2cccc(N3CCc4c(nc(OCC56CCCN5CCC6)nc4N4CCCn5nc(CO)cc5C4)C3)c12 ... 0.271 µM

INPUT: For the compound CCc1cccc2cccc(N3CCc4c(nc(OCC56CCCN5CCC6)nc4N4CCC(n5ccnn5)CC4)C3)c12 , what IC50 is on record?
OUTPUT: 3.65 µM

INPUT: For the compound CCc1cccc2cccc(N3CCc4c(nc(OCC56CCCN5CCC6)nc4N4Cc5ccnn5CC(O)C4)C3)c12 (stereo not shown) , what IC50 is on record?
OUTPUT: 0.613 µM

INPUT: For the compound CCc1cccc2cccc(N3CCc4c(nc(OCC56CCCN5CCC6)nc4N4CCCC(c5cn(C)nn5)C4)C3)c12 (stereo not shown) , what IC50 is on record?
OUTPUT: 1.95 µM

INPUT: For the compound CCc1cccc2cccc(N3CCc4c(nc(OCC56CCCN5CCC6)nc4N4CCCC(c5c[nH]cn5)C4)C3)c12 (stereo not shown) , what IC50 is on record?
OUTPUT: 2.1 µM

INPUT: For the compound CCc1cccc2cccc(N3CCc4c(nc(OCC56CCCN5CCC6)nc4N4CCCC(N5CC(C)CS5(=O)=O)C4)C3)c12 (stereo not shown) , what IC50 is on record?
OUTPUT: 0.083 µM

INPUT: For the compound CCc1cccc2cccc(N3CCc4c(nc(OCC56CCCN5CCC6)nc4N4CC(O)C(O)C(O)C4)C3)c12 (stereo not shown) , what IC50 is on record?
OUTPUT: 0.515 µM
